PROPERTY_LABEL: melting point

Completed entries (count: 5):
| COMPOUND | melting point |
| --- | --- |
| CCC(=O)NCC1CCN(C(=O)Nc2ccc(OC(F)(F)F)cc2)C1 (stereo not drawn) [Example 12] | 166 to 167 °C |
| CCC(=O)N1CC[C@H](NC(=O)Nc2ccc(OC(F)(F)F)cc2)[C@@H](F)C1 [Example 47] | 180 to 181 °C |
| CCC(=O)N1CC[C@H](NC(=O)Nc2ccc(OC(F)(F)F)cc2)[C@H](F)C1 [Example 46] | 245 to 246 °C |
| CCC(=O)N1CC[C@@H](NC(=O)Nc2ccc(OC(F)(F)F)cc2)[C@@H](F)C1 [Example 45] | 231 to 232 °C |
| CCC(=O)N1CC[C@H](NC(=O)Nc2ccc(OC(F)(F)F)cc2)C[C@H]1C [Example 48] | 175 to 176 °C |

Attention now turns to another entry.
// query melting point value for entry CCC(=O)N1CCC(NC(=O)Nc2ccc(OC(F)(F)F)cc2)C(F)(F)C1 (stereo not drawn) [Example 44]
223 to 224 °C
